Just for reference, patent US10532075B2 is where these values come from.

Measured red blood cells by item
System: red blood cells
method description: in-vivo side effects of chemotherapy: change in red blood cells
condition set: rat, in vivo
measured property: red blood cells

compound	value measured
COc1cccc2c1C(=O)c1c(O)c3c(c(O)c1C2=O)C[C@@](O)(C(=O)CO)C[C@@H]3O[C@H]1C[C@H](N)[C@@H](O)[C@H](C)O1 [Epirubicin, epirubicin]	6.73 10^6/µL
CC(=O)O[C@@]12CO[C@@H]1C[C@H](O)[C@@]1(C)C(=O)[C@H](O)C3=C(C)[C@@H](OC(=O)[C@H](O)[C@@H](NC(=O)OC(C)(C)C)c4ccccc4)C[C@@](O)([C@@H](OC(=O)c4ccccc4)[C@H]21)C3(C)C [Taxotere, taxotere]	6.39 10^6/µL
